Assay: Human HepG2 cell viability assay in 384 well format
Format: toxicity, cell-based
Parameters: dose 125 nL, time 70.5 hour; concentration not given beside the values
Conditions: HepG2 cells, read-out: Inhibition
Attribute: cytotoxicity at 70.5 h
RECORDED METRIC: cytotoxicity at 70.5 h (%)

• O=S1(=O)COCCN1Cc1ccc(F)cc1Cl = -9.29
• OC(COCc1ccccc1F)CN1CCC(Cn2cccn2)CC1 (centres undefined) = -0.0861
• CCN1C[C@@H]2CN(S(=O)(=O)c3cccs3)C[C@@H]2C1=O = -8.27
• CCC(C)N1Cc2c(C(=O)N3CCCC3)nn(C)c2C1 (centres undefined) = -2.34
• COc1cccc(CNC(=O)c2cc(C)nc(N3CCCC3)n2)c1 = 17.7
• COCCCn1cnnc1CNC(=O)c1[nH]c2c(C)cc(C)cc2c1C = -6.04
• O=C(c1ccc(Br)s1)N1CCN(Cc2ccc(OC(F)(F)F)cc2)CC1 = 1.44
• COC(C)(C)C(=O)N1Cc2cnc(C(C)(C)C)nc2C1 = -13.3
• CCc1nccn1C1CCCN(C(=O)c2ccnc(C)n2)C1 (centres undefined) = -7.48
• CC(=O)NCc1noc2c1CN(Cc1cnn(C)c1)CC2 = 2.69
• Cc1cccc(CN2C[C@@H]3CCCO[C@@H]3[C@H](NS(C)(=O)=O)C2)n1 = -3.48
• CCc1c(C(=O)N2CCN(c3cnccn3)CC2)cnn1C(C)(C)C = 20.7
• CCNC(=O)N1CCN(c2nc3ccccc3n2C)CC1 = -3.78
• COc1ccc2[nH]c(CNc3cc(C4CCNCC4)nc(C)n3)cc2c1 = -3.5
• CCn1cc(N)c(C(=O)NCc2cnn(C)c2)n1 = -7.78
• CC(Cn1cccn1)NCc1csc(-c2ccc3c(c2)OCO3)n1 (centres undefined) = -5.39
• NS(=O)(=O)c1cnn(-c2ccc(NC(=O)CC3CCCC3)cn2)c1 = -5.14
• CC(C)NC(=O)CCNC(=O)c1cc(Br)cn1C(C)C = 1.21
• CN(Cc1cc(C(C)(C)C)n[nH]1)C(=O)c1cn2ccsc2n1 = -2.6
• CN(CC(=O)NCC(F)(F)F)Cc1nc2c(s1)CCCC2 = -9.23
• NC(=O)Cc1ccc(OCc2noc(C(=O)N3CCCC3)n2)cc1 = -23.4
• COc1ccc(NC(=O)c2ccc(-n3ncc(C#N)c3N)cc2)cn1 = 3.5
• CC(C)(C)c1cn(C2CCN(C(=O)c3cncnc3)CC2)nn1 = 18
• COCCN(Cc1sccc1C)C(=O)c1c(O)cccc1F = -5.43

Hey, just so you know, these numbers are from ChEMBL document CHEMBL3507680.
